The reported numbers originate from PubChem BioAssay AID1159580.

Recorded normalized growth values for a group of molecules are listed next.
# test-protocol: chemical genetic growth profiling, strain panel (AID 1159580);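 further: tested at 20 µM; growth read once vehicle control cultures reached saturation at 30 °C; 1 = growth at the plate median or of vehicle wells; lower values mean less growth of the strain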
# condition-label: S. cerevisiae deletion strains, growth OD, locus YKL190W, strain CNB1, active compounds read low
Screen size: about 5,500 compounds; about 2,000 (36%) were called active. Roughly 18% stayed inconclusive and do not appear here. Some of the results follow.

- molecule: "CC(C)/C(O)=C1/C(=O)O[C@@H](c2ccoc2)[C@]2(C)C(O)[C@@H](O)[C@@]34OC5(C)OC67CC(C)(C(O)[C@]6(O)[C@@H](O)[C@]3(O5)C12)[C@H](CC(=O)O)[C@]74C (stereo partly specified)"
  normalized growth: 0.986
- molecule: "CC(=O)O[C@]1(C)CC[C@@]23CC1C(C)(C)[C@@H]2CC[C@H]3C"
  normalized growth: 1
- molecule: "C[C@@H]1CC[C@H]2C(C)(C)C3CC12CC[C@@]3(C)O (stereo partly specified)"
  normalized growth: 1.01
- molecule: "CC(C)c1nc(N(C)S(C)(=O)=O)nc(-c2ccc(F)cc2)c1/C=C/[C@@H](O)C[C@@H](O)CC(=O)O"
  normalized growth: 1.01
- molecule: "C=C[C@@]1(C)CC(=O)[C@@]2(O)[C@](C)(O1)[C@@H](OC(C)=O)[C@@H](O)C1C(C)(C)CC[C@H](O)[C@@]12C (stereo partly specified)"
  normalized growth: 0.99
- molecule: "C[C@]12CCC3C(CC[C@H]4C[C@H](O)CC[C@]34C)C1CC[C@@H]2O (stereo partly specified)"
  normalized growth: 1.02
- molecule: "Fc1ccc([C@@H]2CCNC[C@H]2COc2ccc3c(c2)OCO3)cc1"
  normalized growth: 1.01
- molecule: "OC[C@H]1O[C@@H](n2cnc3c(NCc4ccco4)ncnc32)[C@H](O)[C@@H]1O"
  normalized growth: 1.01
- molecule: "CN(C)c1ccc(-c2n[nH]c(=O)c3ccccc23)cc1[N+](=O)[O-]"
  normalized growth: 1.01
- molecule: "C[C@]12CCC3C(CC[C@H]4C[C@@H](O)CC[C@]34C)C1CC[C@@H]2O (stereo partly specified)"
  normalized growth: 1.02
- molecule: "Cc1onc(-c2ccccc2)c1-c1ccc(S(N)(=O)=O)cc1"
  normalized growth: 1.01

* * *

# test-protocol: chemical genetic growth profiling, strain panel (AID 1159580);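 further: tested at 20 µM; growth read once vehicle control cultures reached saturation at 30 °C; 1 = growth at the plate median or of vehicle wells; lower values mean less growth of the strain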
# condition-label: S. cerevisiae deletion strains, growth OD, locus YOR083W, strain WHI5 (second series), active compounds read low
Among all 5,500 compounds or so, about 2,000 (36%) were called active. Another 18% or so got no clear call; they are omitted. Some of the results follow.
measurement-kind: normalized growth

- molecule: "NCCCC(=O)O"
  measurement-kind: "normalized growth"
  obs-value: 0.99
- molecule: "CC(=O)NCCc1c[nH]c2ccc(O)cc12"
  measurement-kind: "normalized growth"
  obs-value: 1.01
- molecule: "O=C(O)CCCCCCCC(=O)O"
  measurement-kind: "normalized growth"
  obs-value: 1.02
- molecule: "Nc1ccc(CCN2CCN(c3cccc(C(F)(F)F)c3)CC2)cc1"
  measurement-kind: "normalized growth"
  obs-value: 1.02
- molecule: "O=C(O)/C=C/C(O)c1ccc(Cl)cc1 (stereo unspecified)"
  measurement-kind: "normalized growth"
  obs-value: 0.998
- molecule: "NC(=NCc1ccc(Cl)c(Cl)c1)NC(=O)c1nc(Cl)c(N)nc1N"
  measurement-kind: "normalized growth"
  obs-value: 1.01
- molecule: "O=C(O)C1CCCNC1 (stereo unspecified)"
  measurement-kind: "normalized growth"
  obs-value: 1.02
- molecule: "CNc1ncnc2c1ncn2[C@@H]1O[C@H](CO)[C@H](O)C1O (stereo partly specified)"
  measurement-kind: "normalized growth"
  obs-value: 1
- molecule: "O=C1CCCN1CC#CCN1CCCC1"
  measurement-kind: "normalized growth"
  obs-value: 1.02
- molecule: "CCCNC(=O)NS(=O)(=O)c1ccc(Cl)cc1"
  measurement-kind: "normalized growth"
  obs-value: 0.985
- molecule: "CC[C@H](CO)Nc1nc(NCc2ccccc2)c2ncn(C(C)C)c2n1"
  measurement-kind: "normalized growth"
  obs-value: 1.01
- molecule: "CC(N)c1cccc(Cl)c1Cl (stereo unspecified)"
  measurement-kind: "normalized growth"
  obs-value: 1.01
- molecule: "S=C(S)OC1CC2CC1C1CCCC21 (stereo unspecified)"
  measurement-kind: "normalized growth"
  obs-value: 1
- molecule: "CN1CCCC1CCOC(C)(c1ccccc1)c1ccc(Cl)cc1 (stereo unspecified)"
  measurement-kind: "normalized growth"
  obs-value: 0.986
- molecule: "NCCC1CCCC(CCN)N1 (stereo unspecified)"
  measurement-kind: "normalized growth"
  obs-value: 1.01
- molecule: "COc1cc(NS(C)(=O)=O)ccc1Nc1c2ccccc2nc2ccccc12"
  measurement-kind: "normalized growth"
  obs-value: 0.975
